Tested on: K98450-129-R-PDC complex spheroid growth, percent test/control
Method: Anticancer human tumor K98450-129-R-PDC patient-derived colon adenocarcinoma cell line growth inhibition [RAS]
Condition label: curve of first compound; second compound 0.316 µM
pIC50: −log10 of the molar value.
Consider the following compounds; for each one, report its pIC50.

Worked examples follow.
# Compound, Measured target, Measured value
data = [
    ("O=C(c1ccc(F)c(F)c1Nc1ccc(I)cc1F)N1CC(O)([C@@H]2CCCCN2)C1 + C#Cc1c(F)ccc2cc(O)cc(-c3ncc4c(N5CC6CCC(C5)N6)nc(OCC56CCCN5CC(F)C6)nc4c3F)c12", "K98450-129-R-PDC complex spheroid growth, percent test/control", 6.77),
    ("CC(Nc1ccc2c(c1)OCCn1cc(N3C(=O)OCC3C(F)F)nc1-2)C(N)=O (centres undefined) + C=CC(=O)N1CCN(c2nc(OCC3CCCN3C)nc3c(F)c(-c4nc(N)cc(C)c4C(F)(F)F)c(Cl)cc23)C(C)C1", "K98450-129-R-PDC complex spheroid growth, percent test/control", "> 7.50"),
    ("CC(Nc1ccc2c(c1)OCCn1cc(N3C(=O)OCC3C(F)F)nc1-2)C(N)=O (centres undefined) + C#Cc1c(F)ccc2cc(O)cc(-c3ncc4c(N5CC6CCC(C5)N6)nc(OCC56CCCN5CC(F)C6)nc4c3F)c12", "K98450-129-R-PDC complex spheroid growth, percent test/control", "< 5.00"),
    ("CCN1CCN(Cc2ccc(Nc3ncc(F)c(-c4cc(F)c5nc(C)n(C(C)C)c5c4)n3)nc2)CC1 + C=CC(=O)N1CCN(c2nc(OCC3CCCN3C)nc3c(F)c(-c4nc(N)cc(C)c4C(F)(F)F)c(Cl)cc23)C(C)C1", "K98450-129-R-PDC complex spheroid growth, percent test/control", "> 8.50"),
]

Batch of 5 compounds: report pIC50 for each.
1. Nc1ccn(C2OC(CO)C(O)C2(F)F)c(=O)n1 (centres undefined) + C#Cc1c(F)ccc2cc(O)cc(-c3ncc4c(N5CC6CCC(C5)N6)nc(OCC56CCCN5CC(F)C6)nc4c3F)c12
2. CC(C)n1nc(-c2ccc3oc(N)nc3c2)c2c(N)ncnc21 + C=CC(=O)N1CCN(c2nc(OCC3CCCN3C)nc3c(F)c(-c4nc(N)cc(C)c4C(F)(F)F)c(Cl)cc23)C(C)C1
3. CC(=O)OC12COC1CC(O)C1(C)C(=O)C(O)C3=C(C)C(OC(=O)C(O)C(NC(=O)OC(C)(C)C)c4ccccc4)CC(O)(C(OC(=O)c4ccccc4)C21)C3(C)C (centres undefined) + C#Cc1c(F)ccc2cc(O)cc(-c3ncc4c(N5CC6CCC(C5)N6)nc(OCC56CCCN5CC(F)C6)nc4c3F)c12
4. CC1(C)CCC(Nc2ncc(C(F)(F)F)c(-c3c[nH]c4c(P(C)(C)=O)c(C#N)ccc34)n2)CN1 (centres undefined) + C=CC(=O)N1CCN(c2nc(OCC3CCCN3C)nc3c(F)c(-c4nc(N)cc(C)c4C(F)(F)F)c(Cl)cc23)C(C)C1
5. CC(=O)OC12COC1CC(O)C1(C)C(=O)C(O)C3=C(C)C(OC(=O)C(O)C(NC(=O)OC(C)(C)C)c4ccccc4)CC(O)(C(OC(=O)c4ccccc4)C21)C3(C)C (centres undefined) + C=CC(=O)N1CCN(c2nc(OCC3CCCN3C)nc3c(F)c(-c4nc(N)cc(C)c4C(F)(F)F)c(Cl)cc23)C(C)C1

1. 7.08
2. > 9.50
3. 6.32
4. > 9.02
5. > 7.50

* * *

System: K98450-129-R-PDC complex spheroid growth, percent test/control
Method: Anticancer human tumor K98450-129-R-PDC cell line growth inhibition [RAS]; active = viability on the fitted dose curve at most 10% of control; inactive = the rest;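 also: spheroids exposed to agents for seven days before the viability readout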
Condition label: second compound 0.00949 µM; first compound 0.316 µM
Valid outcomes are listed here; reply with one: active, inactive

Observe how each entry below is paired with its result.
# Compound, Label value
data = [
    ("C[C@@H](NC(=O)c1ncnc(N)c1Cl)c1ncc(C(=O)Nc2cc(C(F)(F)F)c(Cl)cn2)s1 + CCn1c(-c2cc(N3CCN(C)CC3)cnc2C(C)OC)c2c3cc(ccc31)-c1csc(n1)CC(NC(=O)C1CC1C)C(=O)N1CCCC(N1)C(=O)OCC(C)(C)C2", "inactive"),
    ("O=C(c1ccc(F)c(F)c1Nc1ccc(I)cc1F)N1CC(O)([C@@H]2CCCCN2)C1 + CCn1c(-c2cc(N3CCN(C)CC3)cnc2C(C)OC)c2c3cc(ccc31)-c1csc(n1)CC(NC(=O)C1CC1C)C(=O)N1CCCC(N1)C(=O)OCC(C)(C)C2", "active"),
    ("NC1c2ccccc2OC12CCN(c1cnc3c(N4CCCc5ncccc54)n[nH]c3n1)CC2 (centres undefined) + CCn1c(-c2cccnc2C(C)OC)c2c3cc(ccc31)N1CCOC(CC(NC(=O)C(C(C)C)N(C)C(=O)C3(F)CCN(C(=O)C#CC(C)(C)N(C)C)CC3)C(=O)N3CCCC(N3)C(=O)OCC(C)(C)C2)C1", "active"),
]

Now take the following compound into account.
Record lookup: outcome of this test for CCC(CC)c1cc(NC2CCC(N)C2)n2nccc2n1 (centres undefined) + CCn1c(-c2cc(N3CCN(C)CC3)cnc2C(C)OC)c2c3cc(ccc31)-c1csc(n1)CC(NC(=O)C1CC1C)C(=O)N1CCCC(N1)C(=O)OCC(C)(C)C2 ?
inactive

* * *

Please provide measured viability, T/C for the entries that follow.
Test system: K98450-129-R-PDC complex spheroid growth, percent test/control
Method: Anticancer human tumor K98450-129-R-PDC cell line growth inhibition [RAS];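 also: spheroids exposed to agents for seven days before the viability readout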;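 as to viability, T/C: luminescence used as a proxy for viable cell amount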
Condition label: second compound 0.000949 µM; first compound 10 µM; stronger effect = lower value
Answers are plain numbers, in %.

# Molecule, Measured target, Unit abbrev, viability, T/C
measured = [
    ("NC1c2ccccc2OC12CCN(c1cnc3c(N4CCCc5ncccc54)n[nH]c3n1)CC2 (stereo not drawn) + CCn1c(-c2cccnc2C(C)OC)c2c3cc(ccc31)N1CCOC(CC(NC(=O)C(C(C)C)N(C)C(=O)C3(F)CCN(C(=O)C#CC(C)(C)N(C)C)CC3)C(=O)N3CCCC(N3)C(=O)OCC(C)(C)C2)C1", "K98450-129-R-PDC complex spheroid growth, percent test/control", "%", 8.73),
    ("C[C@@H](NC(=O)c1ncnc(N)c1Cl)c1ncc(C(=O)Nc2cc(C(F)(F)F)c(Cl)cn2)s1 + CCn1c(-c2cccnc2C(C)OC)c2c3cc(ccc31)N1CCOC(CC(NC(=O)C(C(C)C)N(C)C(=O)C3(F)CCN(C(=O)C#CC(C)(C)N(C)C)CC3)C(=O)N3CCCC(N3)C(=O)OCC(C)(C)C2)C1", "K98450-129-R-PDC complex spheroid growth, percent test/control", "%", 61.5),
    ("CCC(CC)c1cc(NC2CCC(N)C2)n2nccc2n1 (stereo not drawn) + CCn1c(-c2cccnc2C(C)OC)c2c3cc(ccc31)N1CCOC(CC(NC(=O)C(C(C)C)N(C)C(=O)C3(F)CCN(C(=O)C#CC(C)(C)N(C)C)CC3)C(=O)N3CCCC(N3)C(=O)OCC(C)(C)C2)C1", "K98450-129-R-PDC complex spheroid growth, percent test/control", "%", 11.8),
    ("NC1c2ccccc2OC12CCN(c1cnc3c(N4CCCc5ncccc54)n[nH]c3n1)CC2 (stereo not drawn) + CCn1c(-c2cc(N3CCN(C)CC3)cnc2C(C)OC)c2c3cc(ccc31)-c1csc(n1)CC(NC(=O)C1CC1C)C(=O)N1CCCC(N1)C(=O)OCC(C)(C)C2", "K98450-129-R-PDC complex spheroid growth, percent test/control", "%", 8.57),
]

Need viability, T/C for each of these molecules.
1. CC(Nc1ccc2c(c1)OCCn1cc(N3C(=O)OCC3C(F)F)nc1-2)C(N)=O (stereo not drawn) + CCn1c(-c2cc(N3CCN(C)CC3)cnc2C(C)OC)c2c3cc(ccc31)-c1csc(n1)CC(NC(=O)C1CC1C)C(=O)N1CCCC(N1)C(=O)OCC(C)(C)C2
2. CC(=O)OC12COC1CC(O)C1(C)C(=O)C(O)C3=C(C)C(OC(=O)C(O)C(NC(=O)OC(C)(C)C)c4ccccc4)CC(O)(C(OC(=O)c4ccccc4)C21)C3(C)C (stereo not drawn) + CCn1c(-c2cc(N3CCN(C)CC3)cnc2C(C)OC)c2c3cc(ccc31)-c1csc(n1)CC(NC(=O)C1CC1C)C(=O)N1CCCC(N1)C(=O)OCC(C)(C)C2
3. CC(Nc1ccc2c(c1)OCCn1cc(N3C(=O)OCC3C(F)F)nc1-2)C(N)=O (stereo not drawn) + CCn1c(-c2cccnc2C(C)OC)c2c3cc(ccc31)N1CCOC(CC(NC(=O)C(C(C)C)N(C)C(=O)C3(F)CCN(C(=O)C#CC(C)(C)N(C)C)CC3)C(=O)N3CCCC(N3)C(=O)OCC(C)(C)C2)C1
4. Cc1nc(N2CCC3(CC2)COC(C)C3N)c(CO)nc1Sc1ccnc(N)c1Cl (stereo not drawn) + CCn1c(-c2cc(N3CCN(C)CC3)cnc2C(C)OC)c2c3cc(ccc31)-c1csc(n1)CC(NC(=O)C1CC1C)C(=O)N1CCCC(N1)C(=O)OCC(C)(C)C2

[61.7, 34, 51.3, 16.7]

These measurements were taken from PubChem BioAssay AID2060891.
